For reference, pIC50 measured on mouse sEH (msEH) (Mus musculus):
Note: pIC50 values are expressed as the negative base-10 logarithm of concentration in M.

Worked examples follow.
{"compound": "CC1CCC(NC(=O)Nc2cccc(Cn3nc4ccccn4c3=O)c2)CC1 (centres unmarked) [Z436130862]", "target.entity": "mouse sEH (msEH) (Mus musculus)", "pIC50": 9.00}
{"compound": "CC(C(=O)NC(=O)NC12CC3CC(CC(C3)C1)C2)N1CCN(C(=O)C2COc3ccccc3O2)CC1 (centres unmarked) [Z65159029]", "target.entity": "mouse sEH (msEH) (Mus musculus)", "pIC50": 4.70}
{"compound": "CC(C)N1CCC(NC(=O)NCCC(c2ccccc2)c2ccccc2)CC1 [Z339670416]", "target.entity": "mouse sEH (msEH) (Mus musculus)", "pIC50": 5.80}
{"compound": "NC(=O)COc1ccc(NC(=O)NCCC(c2ccccc2)c2ccccc2)cc1 [Z339843288]", "target.entity": "mouse sEH (msEH) (Mus musculus)", "pIC50": 8.90}
{"compound": "CC(=O)CCc1ccc(OCC(=O)N2CCCC(CNC(=O)Nc3ccc(C)cc3)C2)cc1 (centres unmarked) [Z1033382608]", "target.entity": "mouse sEH (msEH) (Mus musculus)", "pIC50": 5.50}

Query O=C(NNC(=O)c1ccc(COc2ccccc2)cc1)NC12CC3CC(CC(C3)C1)C2 [Z44611499] on mouse sEH (msEH) (Mus musculus); pIC50 returned: 6.90

Query Cc1ccc(C(C)C)c(OCc2ccc(C(=O)NNC(=O)NC34CC5CC(CC(C5)C3)C4)o2)c1 [AK-968/15603026] on mouse sEH (msEH) (Mus musculus); pIC50 returned: 6.50

Query O=C(NCc1ccc(N2CCCC2=O)cc1)NCc1cccc(C(F)(F)F)c1 [Z211761694] on mouse sEH (msEH) (Mus musculus); pIC50 returned: 6.30
